Biological target: Pden_5119 (Paracoccus denitrificans, UniProt A1BCD5, R116K)
Construct: C-terminal His6 tag kept, expressed in E. coli BL21(DE3)pLysS; subunit 20596 g/mol; dimer in solution; contains no cysteine
Sequence (A1BCD5 entry or part of it R116K): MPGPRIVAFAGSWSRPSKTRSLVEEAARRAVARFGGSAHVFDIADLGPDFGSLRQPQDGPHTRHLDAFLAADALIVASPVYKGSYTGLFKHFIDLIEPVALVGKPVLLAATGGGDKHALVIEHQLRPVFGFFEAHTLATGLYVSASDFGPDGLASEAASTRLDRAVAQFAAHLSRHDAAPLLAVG
Test: stopped-flow reduction of enzyme-bound FMN at […] nm, hyperbolic fit of kobs
Type: biochemical
Conditions: anaerobic reductive half-reaction of enzyme-FMN complex; rapid-equilibrium binding step; 0.1 M sodium phosphate pH 7.3; 10 °C; read-out: KNADH
measurement.type: Kd (µM)

1. NC(=O)C1=CN([C@@H]2O[C@H](COP(=O)(O)OP(=O)(O)OC[C@H]3O[C@@H](n4cnc5c(N)ncnc54)[C@H](O)[C@@H]3O)[C@@H](O)[C@H]2O)C=CC1 : 20
